# test_system: murine SR-BI (Mus musculus, UniProt Q61009)
# Construct: expressed in transfected cells; host or cells: ldlA-7 (LDL receptor deficient Chinese hamster ovary cells)
# Sequence (Q61009 1-509): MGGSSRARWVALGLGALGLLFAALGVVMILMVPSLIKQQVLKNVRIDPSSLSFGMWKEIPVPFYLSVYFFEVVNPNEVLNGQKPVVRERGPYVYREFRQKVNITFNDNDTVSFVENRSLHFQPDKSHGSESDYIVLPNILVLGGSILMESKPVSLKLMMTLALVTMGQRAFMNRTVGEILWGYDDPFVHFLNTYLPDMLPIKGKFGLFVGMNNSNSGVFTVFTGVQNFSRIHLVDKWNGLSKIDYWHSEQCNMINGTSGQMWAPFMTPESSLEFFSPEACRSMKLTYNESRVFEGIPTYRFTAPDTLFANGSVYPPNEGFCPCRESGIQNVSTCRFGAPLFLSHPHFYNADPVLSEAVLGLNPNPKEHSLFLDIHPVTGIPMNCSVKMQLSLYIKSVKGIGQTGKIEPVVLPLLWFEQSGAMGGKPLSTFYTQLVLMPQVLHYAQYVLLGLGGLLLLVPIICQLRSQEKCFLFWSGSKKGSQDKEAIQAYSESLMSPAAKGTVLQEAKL
# assay_method_text: Uptake of DiI from DiI-HDL by ldlA[mSR-BI] cells (high throughput screen and concentration dependence)
# Assay type: cell-based
# assay_setup: Test 2
value_type: ENDOHDL Test 2

O=C(CSC1=NCCN1)Nc1ccccc1    0.54
CCn1c2ccccc2c2cc(/C=N/NC(N)=S)ccc21    0.56
Cc1nn(-c2ccccc2)c(Cl)c1/N=N/c1ccccc1    0.63
NSCc1nc(-c2ccc(Cl)cc2)no1    0.58
O=C(C[n+]1ccc(CCSC2Cc3cccc4cccc2c34)cc1)c1ccc([N+](=O)[O-])cc1 (stereo not shown)    0.71
CCCCN1CCC(Cl)(c2ccccc2)C(C(=O)c2ccccc2)C1 (stereo not shown)    1.32
COc1ccc(COCC(Cl)CN2CCCCC2)cc1OC.Cl (stereo not shown) [MIT 9952-40]    1.23
CC(CC(=O)NCCc1c[nH]c2ccccc12)C(=O)Cl (stereo not shown)    1.26
O=C(/C=C/c1ccccc1)NC(NC(=S)Nc1cccc([N+](=O)[O-])c1)C(Cl)(Cl)Cl (stereo not shown) [MIT 9952-100]    0.51
O=C(Nc1cc2c(cc1C(=O)c1ccccc1)OCCO2)c1ccc(Br)cc1    0.58
O=C(CC1=CCCCC1)Nc1cc([N+](=O)[O-])ccc1O    1.18
CC1CC2(C)CC(C(=O)O2)C1C(=O)OCCOc1ccccc1 (stereo not shown)    1.75
O=C(COc1ccc(Cl)cc1Cl)Nc1cccc(C(=O)O)c1    0.6
O=C(CC1=CCCCC1)Nc1cc([N+](=O)[O-])ccc1Cl    1.18
Nc1ccc(C(=O)Nc2ccc(C3Nc4ccc(SC(=O)c5ccc(N)cc5)c(Cl)c4S3)cc2)cc1 (stereo not shown)    0.56
C/C(=N\NC(=O)c1ccccc1)c1ccccc1C(=O)O    1.26
CCCCOCCC1CCC/C1=N\NC(N)=S (stereo not shown) [MIT 9952-249]    0.57
CN(CC#CC(O)(c1ccccc1)c1ccccc1)C1CCCCC1    1.12
CCOC(C(=O)OC(C)CN(C)C)(c1ccccc1)c1ccccc1.Cl (stereo not shown)    1.36
O=C1C(=O)c2ccc(Oc3ccc([N+](=O)[O-])cc3)c3cccc1c23    0.73
CN(C)/C=N/C(=O)CN1CCCC1=O    1.32
COc1ccc([N+](=O)[O-])cc1NC(=O)c1ccccc1    0.6
Cl.NCCc1nc2ccccc2[nH]1    1.69
Cc1c([N+](=O)[O-])cc(C(=O)Nc2cccc(NC(=O)c3ccccc3)c2)cc1[N+](=O)[O-]    0.33
CCN(CC(O)COc1ccccc1C(C)=O)S(=O)(=O)[O-].[Na+] (stereo not shown)    1.24
O=C1CC(S/C(=N\c2ccccc2)Nc2ccccc2)C(=O)N1c1cccc2ccccc12 (stereo not shown)    0.54
Cc1ccc(C(C)C)c(OCC(=O)Nc2cc([N+](=O)[O-])ccc2C)c1    0.57
CCN(CC)C(=O)N1CCN(c2ccc(Nc3ccnc4cc5ccccc5cc34)cc2)CC1    0.77
Cc1ccc2[nH]c3c(c2c1)CCCC3NCC12CC3CC(CC(C3)C1)C2 (stereo not shown)    0.89
O=C(NC(NC(=S)Nc1ccc(Cl)cc1Cl)C(Cl)(Cl)Cl)c1ccco1 (stereo not shown)    0.53
CCc1nnc(N2CCN(c3ncnc4c3cnn4-c3ccccc3)CC2)s1    0.66
Cc1nn(-c2ccc([N+](=O)[O-])cc2)c(Cl)c1[N+](=O)[O-]    0.61
CCOC1=C(C(C)=O)NC(c2ccc(OC)cc2)C(=S)N1 (stereo not shown)    0.67
Cc1ccc2c(c1Br)/C(=N/NC(=O)Nc1ccccc1)C(=O)N2    0.65
COc1ccc(C(=O)Nc2cccc(C(F)(F)F)c2)cc1OC    0.55
O=C1CC(N2CCOCC2)C(=O)N1c1ccc(Br)cc1 (stereo not shown) [MIT 9952-81]    1.17
Cc1ccc(N2SC(NS(=O)(=O)c3ccc(C)cc3)N=C2c2ccccc2)cc1 (stereo not shown)    1.19
